Measured IC50 of individual entries
target_under_test: His-tagged soluble recombinant human IGF-IR (srhIGF-1R-his) (human), P08069
assay_text: ALPHAScreen competition against b-hIGF-1 on srhIGF-1R-his
Respond numerically; units are µM and should not be typed.

WLDQERAWLWCEISGRGCLS (modifications not checked) [lig-D815]
2.2

Please examine the following record next.
// query Give the measured IC50 of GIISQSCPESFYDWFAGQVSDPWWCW (peptide, from a related filing, modifications not checked) [G33-lig] .
// result 0.71

Values compiled from patent US20070004634A1.
